testedTarget: D-aminoacylase (Alcaligenes faecalis)
Sequence (Q9AGH8 1-484): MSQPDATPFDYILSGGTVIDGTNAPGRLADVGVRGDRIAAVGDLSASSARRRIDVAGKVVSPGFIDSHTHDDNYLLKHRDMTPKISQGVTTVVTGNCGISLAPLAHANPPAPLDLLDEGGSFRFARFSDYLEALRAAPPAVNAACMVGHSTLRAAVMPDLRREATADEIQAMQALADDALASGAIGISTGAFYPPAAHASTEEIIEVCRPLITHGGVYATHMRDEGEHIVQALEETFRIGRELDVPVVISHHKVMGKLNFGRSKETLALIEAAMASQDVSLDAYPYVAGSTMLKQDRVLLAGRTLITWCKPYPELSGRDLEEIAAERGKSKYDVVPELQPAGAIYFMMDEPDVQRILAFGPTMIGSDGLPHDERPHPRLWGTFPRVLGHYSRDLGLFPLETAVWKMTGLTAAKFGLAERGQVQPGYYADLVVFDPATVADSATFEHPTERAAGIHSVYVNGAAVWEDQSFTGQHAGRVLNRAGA
measurementProtocol: Influence of metallic ions on D-aminoacylase activities
Assay type: biochemical
conditionNotes: 1 mM metallic ion, 50 mM Tris-HCl pH 7.8, 30 minutes at 37° C., ninhydrin method
Kindly state Residual activities % for each of the entries shown.
Give bare numbers, in %.

Worked cases, answers included:
[Cl][Cd][Cl]
0
[Cl-].[Cl-].[Co+2]
96
[Cl][Fe][Cl]
60

Hi, could you look up Residual activities % for each item in my list?
1. [Cl-].[Cl-].[Zn+2]
2. [Cl-].[Cl-].[Mg+2]
3. [Cl][Ni][Cl]
4. [Ba+2].[Cl-].[Cl-]
5. [Cl][Mn][Cl]

A.
0
95
89
99
70

Hi, could you look up Residual activities % for each item in my list?
1. [Ca+2].[Cl-].[Cl-]
2. [Cl-].[Cl-].[Sr+2]
3. [Cl][Hg][Cl]
4. [Cl][Cu][Cl]

A.
99
87
0
15

----------
Kindly state Relative Activity L-form for each of the entries shown.
testedTarget: D-aminoacylase (Alcaligenes faecalis, UniProt Q9AGH8)
measurementProtocol: Substrate specificity of D-aminoacylase (hydrolysis of N-acyl amino acids, ninhydrin method)
Type: biochemical
conditionNotes: L-form of the substrate; relative to N-acetyl-D-methionine = 100

Worked cases, answers included:
CC(=O)N[C@@H](Cc1c[nH]c2ccccc12)C(=O)O
0
CSCC[C@H](NC(C)=O)C(=O)O
0.8
CC(=O)N[C@@H](C)C(=O)O
0.7
CC(=O)N[C@H](C(=O)O)C(C)C
0
CC(=O)N[C@@H](Cc1ccccc1)C(=O)O
0.8
CC(=O)N[C@@H](CC(N)=O)C(=O)O
0
CC(C)[C@H](NC(=O)CCl)C(=O)O
0.6
CC(=O)NC(CC(C)C)C(=O)O (stereo not drawn)
0.4

Let's switch to this molecule now.
Q. Give its Relative Activity L-form value. Item: CC(=O)NC(C(=O)O)c1ccccc1 (stereo not drawn)
A. 0
